Test system: EKVX
Assay: relative viability (nuclei count vs DMSO), 5 days (fraction); higher = more cells survive
Conditions: first compound 0.3162 µM

compound	relative viability
CC(C)Oc1cc(Nc2nc(N[C@@H](C)c3ccc(F)cn3)ncc2Cl)n[nH]1 [AZ23] + Cc1nc(NC(=O)N2CCC[C@H]2C(N)=O)sc1-c1ccnc(C(C)(C)C(F)(F)F)c1 [Alpelisib] (partner 2 µM)	0.978
CC(C)Oc1cc(Nc2nc(N[C@@H](C)c3ccc(F)cn3)ncc2Cl)n[nH]1 [AZ23] + CCNC(=O)c1noc(-c2cc(C(C)C)c(O)cc2O)c1-c1ccc(CN2CCOCC2)cc1 [Luminespib] (partner 0.01 µM)	0.924
CC(C)Oc1cc(Nc2nc(N[C@@H](C)c3ccc(F)cn3)ncc2Cl)n[nH]1 [AZ23] + CC(C)C[C@H](NC(=O)[C@H](Cc1ccccc1)NC(=O)c1cnccn1)B(O)O [Bortezomib] (partner 0.002 µM)	1.01
CC(C)Oc1cc(Nc2nc(N[C@@H](C)c3ccc(F)cn3)ncc2Cl)n[nH]1 [AZ23] + CC1(C)CCC(c2ccc(Cl)cc2)=C(CN2CCN(c3ccc(C(=O)NS(=O)(=O)c4ccc(N[C@H](CCN5CCOCC5)CSc5ccccc5)c(S(=O)(=O)C(F)(F)F)c4)cc3)CC2)C1 [Navitoclax] (partner 0.5 µM)	1.02
CC(C)Oc1cc(Nc2nc(N[C@@H](C)c3ccc(F)cn3)ncc2Cl)n[nH]1 [AZ23] + Cc1cc(Nc2cc(N3CCN(C)CC3)nc(Sc3ccc(NC(=O)C4CC4)cc3)n2)n[nH]1 [Tozasertib] (partner 0.1 µM)	0.407
CC(C)Oc1cc(Nc2nc(N[C@@H](C)c3ccc(F)cn3)ncc2Cl)n[nH]1 [AZ23] + Cc1nc(Nc2ncc(C(=O)Nc3c(C)cccc3Cl)s2)cc(N2CCN(CCO)CC2)n1 [Dasatinib] (partner 0.075 µM)	0.48
CC(C)Oc1cc(Nc2nc(N[C@@H](C)c3ccc(F)cn3)ncc2Cl)n[nH]1 [AZ23] + C[C@@H](Oc1cc(-c2cnn(C3CCNCC3)c2)cnc1N)c1c(Cl)ccc(F)c1Cl [Crizotinib] (partner 1 µM)	1.03
CC(C)Oc1cc(Nc2nc(N[C@@H](C)c3ccc(F)cn3)ncc2Cl)n[nH]1 [AZ23] + N=C(N)NC(=N)NCCc1ccccc1 [Phenformin] (partner 250 µM)	0.231

----------
Catalogue of compounds with associated relative viability
System: COR-L 105
Experiment: relative viability (nuclei count vs DMSO), 5 days (fraction); higher = more cells survive
Conditions: first compound 4 µM

compound	target	relative viability
COc1cc(N2CCC(C(N)=O)CC2)ccc1Nc1nc(N)c(Cl)c(Nc2ccccc2S(=O)(=O)C(C)C)n1 [HG-5-88-01] + Nc1ncn([C@H]2C[C@H](O)[C@@H](CO)O2)c(=O)n1 [Decitabine] (partner 2 µM)	COR-L 105	0.577
COc1cc(N2CCC(C(N)=O)CC2)ccc1Nc1nc(N)c(Cl)c(Nc2ccccc2S(=O)(=O)C(C)C)n1 [HG-5-88-01] + CC(=O)Nc1cccc(-n2c(=O)n(C3CC3)c(=O)c3c(Nc4ccc(I)cc4F)n(C)c(=O)c(C)c32)c1 [Trametinib] (partner 0.02 µM)	COR-L 105	0.421
Clc1ccc(Nc2nnc(Cc3ccncc3)c3ccccc23)cc1 [Vatalanib] + Nc1ncn([C@H]2C[C@H](O)[C@@H](CO)O2)c(=O)n1 [Decitabine] (partner 2 µM)	COR-L 105	0.714
C[C@@H]1CN(CC(=O)Nc2ccc3c(c2)Cc2cccc(-c4cc(=O)cc(N5CCOCC5)o4)c2S3)C[C@H](C)O1 + CC1(C)CCC(c2ccc(Cl)cc2)=C(CN2CCN(c3ccc(C(=O)NS(=O)(=O)c4ccc(N[C@H](CCN5CCOCC5)CSc5ccccc5)c(S(=O)(=O)C(F)(F)F)c4)cc3)CC2)C1 [Navitoclax] (partner 0.5 µM)	COR-L 105	0.686

----------
Tested on: NCI-H1666
Assay: relative viability (nuclei count vs DMSO), 5 days (fraction); higher = more cells survive
Details: first compound 0.4 µM
The following molecules are shown together with reported relative viability values.

molecule	relative viability
Clc1ccc(Nc2nnc(Cc3ccncc3)c3ccccc23)cc1 [Vatalanib] + COc1cccc2cc(-c3nc([C@H]4CC[C@H](C(=O)O)CC4)n4ncnc(N)c34)[nH]c12 [OSI-027] (partner 0.5 µM)	0.883
COc1cc(N2CCC(C(N)=O)CC2)ccc1Nc1nc(N)c(Cl)c(Nc2ccccc2S(=O)(=O)C(C)C)n1 [HG-5-88-01] + Nc1ncn([C@H]2C[C@H](O)[C@@H](CO)O2)c(=O)n1 [Decitabine] (partner 2 µM)	0.779
C[C@@H]1CN(CC(=O)Nc2ccc3c(c2)Cc2cccc(-c4cc(=O)cc(N5CCOCC5)o4)c2S3)C[C@H](C)O1 + O=C(c1cc(Cc2n[nH]c(=O)c3ccccc23)ccc1F)N1CCN(C(=O)C2CC2)CC1 [Olaparib] (partner 8 µM)	0.659
C[C@@H]1CN(CC(=O)Nc2ccc3c(c2)Cc2cccc(-c4cc(=O)cc(N5CCOCC5)o4)c2S3)C[C@H](C)O1 + CC1(C)CCC(c2ccc(Cl)cc2)=C(CN2CCN(c3ccc(C(=O)NS(=O)(=O)c4ccc(N[C@H](CCN5CCOCC5)CSc5ccccc5)c(S(=O)(=O)C(F)(F)F)c4)cc3)CC2)C1 [Navitoclax] (partner 0.5 µM)	0.862

----------
Tested on: RERF-LC-KJ
Experiment: relative viability (nuclei count vs DMSO), 5 days (fraction); higher = more cells survive
Settings: first compound 0.04 µM
Collected relative viability values appear next to each entry.
testReadout: relative viability

compound	target	testReadout	endpointValue
Clc1ccc(Nc2nnc(Cc3ccncc3)c3ccccc23)cc1 [Vatalanib] + CC(=O)Nc1cccc(-n2c(=O)n(C3CC3)c(=O)c3c(Nc4ccc(I)cc4F)n(C)c(=O)c(C)c32)c1 [Trametinib] (partner 0.02 µM)	RERF-LC-KJ	relative viability	0.931
Clc1ccc(Nc2nnc(Cc3ccncc3)c3ccccc23)cc1 [Vatalanib] + COc1cccc2cc(-c3nc([C@H]4CC[C@H](C(=O)O)CC4)n4ncnc(N)c34)[nH]c12 [OSI-027] (partner 0.5 µM)	RERF-LC-KJ	relative viability	0.657
Clc1ccc(Nc2nnc(Cc3ccncc3)c3ccccc23)cc1 [Vatalanib] + NC(=O)Nc1cc(-c2cccc(F)c2)sc1C(=O)N[C@H]1CCCNC1 [AZD7762] (partner 0.2 µM)	RERF-LC-KJ	relative viability	1.16
COc1cc(N2CCC(C(N)=O)CC2)ccc1Nc1nc(N)c(Cl)c(Nc2ccccc2S(=O)(=O)C(C)C)n1 [HG-5-88-01] + CC(C)C[C@H](NC(=O)[C@H](Cc1ccccc1)NC(=O)c1cnccn1)B(O)O [Bortezomib] (partner 0.002 µM)	RERF-LC-KJ	relative viability	1.23
COc1cc(N2CCC(C(N)=O)CC2)ccc1Nc1nc(N)c(Cl)c(Nc2ccccc2S(=O)(=O)C(C)C)n1 [HG-5-88-01] + Cc1nc(Nc2ncc(C(=O)Nc3c(C)cccc3Cl)s2)cc(N2CCN(CCO)CC2)n1 [Dasatinib] (partner 0.075 µM)	RERF-LC-KJ	relative viability	0.804
C[C@@H]1CN(CC(=O)Nc2ccc3c(c2)Cc2cccc(-c4cc(=O)cc(N5CCOCC5)o4)c2S3)C[C@H](C)O1 + C[C@@H](Oc1cc(-c2cnn(C3CCNCC3)c2)cnc1N)c1c(Cl)ccc(F)c1Cl [Crizotinib] (partner 1 µM)	RERF-LC-KJ	relative viability	0.861
Clc1ccc(Nc2nnc(Cc3ccncc3)c3ccccc23)cc1 [Vatalanib] + CS(=O)(=O)N1CCN(Cc2cc3nc(-c4cccc5[nH]ncc45)nc(N4CCOCC4)c3s2)CC1 [Pictilisib] (partner 1 µM)	RERF-LC-KJ	relative viability	0.486

----------
System: NCI-H2228
Assay: relative viability (nuclei count vs DMSO), 5 days (fraction); higher = more cells survive
Conditions: first compound 4 µM
Output class 1 for records whose relative viability is lower than 0.3, class 0 for records at or above 0.3.

compound	classLabel
COc1cc(N2CCC(C(N)=O)CC2)ccc1Nc1nc(N)c(Cl)c(Nc2ccccc2S(=O)(=O)C(C)C)n1 [HG-5-88-01] + COc1cccc2cc(-c3nc([C@H]4CC[C@H](C(=O)O)CC4)n4ncnc(N)c34)[nH]c12 [OSI-027] (partner 0.5 µM)	class 1
Clc1ccc(Nc2nnc(Cc3ccncc3)c3ccccc23)cc1 [Vatalanib] + CS(=O)(=O)N1CCN(Cc2cc3nc(-c4cccc5[nH]ncc45)nc(N4CCOCC4)c3s2)CC1 [Pictilisib] (partner 1 µM)	class 0
C[C@@H]1CN(CC(=O)Nc2ccc3c(c2)Cc2cccc(-c4cc(=O)cc(N5CCOCC5)o4)c2S3)C[C@H](C)O1 + Nc1nc2[nH]cc(CCc3ccc(C(=O)N[C@@H](CCC(=O)O)C(=O)O)cc3)c2c(=O)[nH]1 [Pemetrexed] (partner 0.2 µM)	class 1
C[C@@H]1CN(CC(=O)Nc2ccc3c(c2)Cc2cccc(-c4cc(=O)cc(N5CCOCC5)o4)c2S3)C[C@H](C)O1 + CC1(C)CCC(c2ccc(Cl)cc2)=C(CN2CCN(c3ccc(C(=O)NS(=O)(=O)c4ccc(N[C@H](CCN5CCOCC5)CSc5ccccc5)c(S(=O)(=O)C(F)(F)F)c4)cc3)CC2)C1 [Navitoclax] (partner 0.5 µM)	class 0
C[C@@H]1CN(CC(=O)Nc2ccc3c(c2)Cc2cccc(-c4cc(=O)cc(N5CCOCC5)o4)c2S3)C[C@H](C)O1 + CCNC(=O)c1noc(-c2cc(C(C)C)c(O)cc2O)c1-c1ccc(CN2CCOCC2)cc1 [Luminespib] (partner 0.01 µM)	class 1
Clc1ccc(Nc2nnc(Cc3ccncc3)c3ccccc23)cc1 [Vatalanib] + CC1(C)CCC(c2ccc(Cl)cc2)=C(CN2CCN(c3ccc(C(=O)NS(=O)(=O)c4ccc(N[C@H](CCN5CCOCC5)CSc5ccccc5)c(S(=O)(=O)C(F)(F)F)c4)cc3)CC2)C1 [Navitoclax] (partner 0.5 µM)	class 0
Clc1ccc(Nc2nnc(Cc3ccncc3)c3ccccc23)cc1 [Vatalanib] + CC(C)C[C@H](NC(=O)[C@H](Cc1ccccc1)NC(=O)c1cnccn1)B(O)O [Bortezomib] (partner 0.002 µM)	class 0
COc1cc(N2CCC(C(N)=O)CC2)ccc1Nc1nc(N)c(Cl)c(Nc2ccccc2S(=O)(=O)C(C)C)n1 [HG-5-88-01] + CC(C)C[C@H](NC(=O)[C@H](Cc1ccccc1)NC(=O)c1cnccn1)B(O)O [Bortezomib] (partner 0.002 µM)	class 0
Clc1ccc(Nc2nnc(Cc3ccncc3)c3ccccc23)cc1 [Vatalanib] + Cc1nc(NC(=O)N2CCC[C@H]2C(N)=O)sc1-c1ccnc(C(C)(C)C(F)(F)F)c1 [Alpelisib] (partner 2 µM)	class 0
Clc1ccc(Nc2nnc(Cc3ccncc3)c3ccccc23)cc1 [Vatalanib] + CC(=O)Nc1cccc(-n2c(=O)n(C3CC3)c(=O)c3c(Nc4ccc(I)cc4F)n(C)c(=O)c(C)c32)c1 [Trametinib] (partner 0.02 µM)	class 0
Clc1ccc(Nc2nnc(Cc3ccncc3)c3ccccc23)cc1 [Vatalanib] + N=C(N)NC(=N)NCCc1ccccc1 [Phenformin] (partner 250 µM)	class 0
COc1cc(N2CCC(C(N)=O)CC2)ccc1Nc1nc(N)c(Cl)c(Nc2ccccc2S(=O)(=O)C(C)C)n1 [HG-5-88-01] + Cc1cc(Nc2cc(N3CCN(C)CC3)nc(Sc3ccc(NC(=O)C4CC4)cc3)n2)n[nH]1 [Tozasertib] (partner 0.1 µM)	class 1
COc1cc(N2CCC(C(N)=O)CC2)ccc1Nc1nc(N)c(Cl)c(Nc2ccccc2S(=O)(=O)C(C)C)n1 [HG-5-88-01] + CCNC(=O)c1noc(-c2cc(C(C)C)c(O)cc2O)c1-c1ccc(CN2CCOCC2)cc1 [Luminespib] (partner 0.01 µM)	class 1
Clc1ccc(Nc2nnc(Cc3ccncc3)c3ccccc23)cc1 [Vatalanib] + C[C@@H](Oc1cc(-c2cnn(C3CCNCC3)c2)cnc1N)c1c(Cl)ccc(F)c1Cl [Crizotinib] (partner 1 µM)	class 0
C[C@@H]1CN(CC(=O)Nc2ccc3c(c2)Cc2cccc(-c4cc(=O)cc(N5CCOCC5)o4)c2S3)C[C@H](C)O1 + CS(=O)(=O)N1CCN(Cc2cc3nc(-c4cccc5[nH]ncc45)nc(N4CCOCC4)c3s2)CC1 [Pictilisib] (partner 1 µM)	class 0
C[C@@H]1CN(CC(=O)Nc2ccc3c(c2)Cc2cccc(-c4cc(=O)cc(N5CCOCC5)o4)c2S3)C[C@H](C)O1 + COc1cccc2cc(-c3nc([C@H]4CC[C@H](C(=O)O)CC4)n4ncnc(N)c34)[nH]c12 [OSI-027] (partner 0.5 µM)	class 0
COc1cc(N2CCC(C(N)=O)CC2)ccc1Nc1nc(N)c(Cl)c(Nc2ccccc2S(=O)(=O)C(C)C)n1 [HG-5-88-01] + CS(=O)(=O)N1CCN(Cc2cc3nc(-c4cccc5[nH]ncc45)nc(N4CCOCC4)c3s2)CC1 [Pictilisib] (partner 1 µM)	class 1
